FYI, the data here is from paper PMC5454392.

Target: T1, CaBdf1 BD1 (GST-tagged, wild-type) (Candida albicans (strain SC5314 / ATCC …, UniProt Q5A4W8))
T1 chain: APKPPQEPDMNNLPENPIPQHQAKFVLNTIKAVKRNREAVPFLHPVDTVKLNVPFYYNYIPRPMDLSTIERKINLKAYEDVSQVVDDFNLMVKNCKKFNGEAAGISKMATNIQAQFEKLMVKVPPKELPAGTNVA
Experiment: histone peptide array (Active Motif MODified), 1 uM GST-tagged bromodomain, anti-GST detection, normalized mean intensity
Square brackets hold non-standard residues; d marks the D form. Ends that are not written are not given here. Arg(Me2a) = CN(C)C(=N)NCCC[C@H](N)C(=O)O; Lys(Me3) = C[N+](C)(C)CCCC[C@H](N)C(=O)O; pT = C[C@@H](OP(=O)(O)O)[C@H](N)C(=O)O; pS = N[C@@H](COP(=O)(O)O)C(=O)O; Me2a = not defined here; me2a = not defined here
parameter_measured: binding score
// no unit, no text: just the number

A[Arg(Me2a)]TK(Ac)QTA[Arg(Me2a)][Lys(Me3)]STGGKAPRKQ
0.00834
A[Arg(Me2a)][pT][Lys(Me3)]QTARKSTGGKAPRKQ
0.00725
AR(me2a)TK(Ac)QTAR(me2a)K(Me)STGGKAPRKQ (reading uncertain)
0.00761
ARTK(Me)QTARKSTGGKAPRKQ
0.000725

Item: ARTKQTARKSTGGKAPRKQ (A Rme2s T Kme1 Q T A Rme2s K S T G G K A P R K Q) | binding score: 0.00326

Item: SGRGKGGKGLGKGGAKRHR (S G R G Kac G G Kac G L G Kac G G A K R H R) [H4 1-19] | binding score: 0.0729

Item: PRKQLATKAAR(Me2s)K(Ac)SAPATGG [H3 16-35] | binding score: 0.0123

Item: ARTK(Me)QTAR(Me2a)K(Me2)STGGKAPRKQ (reading uncertain) | binding score: 0.0138

Item: ARTKQTARKSTGGKAPRKQ (A R T K Q T A R Kme3 S T G G Kac A P R K Q) | binding score: 0.0225

Item: ARTKQTARKSTGGKAPRKQ (A R T Kme1 Q T A Rme2s Kac S T G G K A P R K Q) | binding score: 0.0305

Item: ARTKQTARKSTGGKAPRKQ (A Rme2s T Kac Q T A R Kme3 S T G G K A P R K Q) | binding score: 0.00616

Item: ARTKQTARKSTGGKAPRKQ (A Rme2a T Kme1 Q T A R Kme2 S T G G K A P R K Q) | binding score: 0.00326

Item: ARTKQTARKSTGGKAPRKQ (A R T K Q T A Rme2s Kac S pT G G K A P R K Q) | binding score: 0.00363

Item: PDPAK(Ac)SAPAPKKG[pS]KKAVT [H2B 1-19] | binding score: 0.00689
